B1: POU domain, class 3, transcription factor 2, residues 356 to 411; numbered along this chain, P20265 (parent)
chain: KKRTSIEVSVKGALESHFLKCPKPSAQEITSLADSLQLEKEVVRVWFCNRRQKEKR

- Variants of: B1
- assay_protocol: abundance fitness (aPCA) (normalised: wild type 0, dead -1); higher = more abundant; growth selection in yeast, the domain comes from the species named
- condition_info: Homo sapiens
reported_endpoint: abundance fitness
Would you mind answering with just the numeric figure?

Please report the recorded abundance fitness for KKGTSIEVSVKGALESHFLKCPKPSAQEITSLADSLQLEKEVVRVWFCNRRQKEKR [R3G] . 0.092

Now consider KKRTSIEVSVKGGLESHFLKCPKPSAQEITSLADSLQLEKEVVRVWFCNRRQKEKR [A13G] and answer again. -0.379

Now consider KKRTSIEVSVKGALESHFLKCPKPSAQEITSLADSLQLEKEVVRVWFCNRRQKEKC [R56C] and answer again. 0.045

Now consider KKRTSIEVSVKGALESHFLTCPKPSAQEITSLADSLQLEKEVVRVWFCNRRQKEKR [K20T] and answer again. -0.16

Now consider KKRTSIEVSVKGALDSHFLKCPKPSAQEITSLADSLQLEKEVVRVWFCNRRQKEKR [E15D] and answer again. -0.623

Now consider KKRTSIEVSVKGALESHFLKCPKPSAQEITSLADSLQLELEVVRVWFCNRRQKEKR [K40L] and answer again. -0.147

Now consider KKRTSIEVSVKGALESHFLKCPKPSAQPITSLADSLQLEKEVVRVWFCNRRQKEKR [E28P] and answer again. -0.802

Now consider KKRTSIEVSVKGALESHFLPCPKPSAQEITSLADSLQLEKEVVRVWFCNRRQKEKR [K20P] and answer again. -1.03

Now consider KKRTSIEVSVKGALESHFLECPKPSAQEITSLADSLQLEKEVVRVWFCNRRQKEKR [K20E] and answer again. -0.445

Now consider KKRTSIEVSVKGALESHFLKCPNPSAQEITSLADSLQLEKEVVRVWFCNRRQKEKR [K23N] and answer again. 0.105

Now consider KKRTSIEVSVKGALESHFLKCPKPSAQEITSLADSLQLEKEVVRVWFCNRRQDEKR [K53D] and answer again. -0.234
